In this section, each of the compounds is paired with its reported RP-LC retention time.
Assay: gradient 5% acetonitrile 3 min, to 50% in 2 min, to 85% in 15 min, held 3 min, 100 µL/min
Details: column: Zorbax Extend-C18 2.1 x 50 mm; eluents: water / acetonitrile, 0.1% formic acid
Return type: number; implicit unit s.

Before answering, review these 2 worked examples.
compound | RP-LC retention time (s)
O=C(c1ccoc1)N1CCN(C(=O)c2nnn3c2COC(c2ccccc2)C3)CC1 (centres undefined) | 767
CN(C)C(CNC(=O)c1cc(-c2ccc3c(c2)OCCO3)on1)c1ccc(F)cc1 (centres undefined) | 681

INPUT: Identify the reported RP-LC retention time for the following entry. `Cc1ccc(NC(=O)c2cccn2Cc2noc(C3CC3)n2)cc1F`
OUTPUT: 1010

INPUT: Identify measured RP-LC retention time corresponding to CC(Oc1ccccc1)c1nc(-c2ccc3c(c2)nnn3CCC(=O)N2CCOCC2)no1 (centres undefined)
OUTPUT: 852

INPUT: Look up and report measured RP-LC retention time for this entry: Cc1cc(C)n(-c2cc(N3CCCC(C(=O)Nc4cccc(C(F)(F)F)c4)C3)ncn2)n1 (centres undefined)
OUTPUT: 1060

INPUT: Answer with the recorded RP-LC retention time for the compound listed here: `COc1cc(NC(=O)Cn2nc3c(N4CCSCC4)nccn3c2=O)cc(OC)c1`
OUTPUT: 795

INPUT: For the compound CC(C)(C)c1onc(OCP(=O)(O)O)c1CC(N)C(=O)O (centres undefined) , give its measured RP-LC retention time value.
OUTPUT: 594

INPUT: Quick one: give measured RP-LC retention time for `CN1C(=O)c2cccnc2Sc2cc(C(=O)NC3CCCCC3)ccc21`
OUTPUT: 773

INPUT: Determine from records and report RP-LC retention time for `CCN1C(=O)CCc2cc(NS(=O)(=O)c3ccc(C(F)(F)F)cc3)ccc21`
OUTPUT: 858

---

Measured RP-LC retention time, listed per entry.
Assay: gradient 5% acetonitrile 3 min, to 50% in 2 min, to 85% in 15 min, held 3 min, 100 µL/min
Conditions: column: Zorbax Extend-C18 2.1 x 50 mm; eluents: water / acetonitrile, 0.1% formic acid
// return numeric value only (unit: s, not printed)

Worked cases, RP-LC retention time given:
compound | RP-LC retention time, s
CCCNC(=O)C1CCCN(c2nc3ncn(CC(=O)Nc4ccc(F)c(F)c4)c(=O)c3s2)C1 (centres undefined) | 708
Cc1ccc(CNC(=O)N2CC=C(c3cn(C)c4ncccc34)CC2)cc1 | 818
CCc1ccccc1NC(=O)COc1nc(C)nc2ccccc12 | 747

INPUT: Read off the recorded RP-LC retention time for `Cc1cc(S(=O)(=O)N2C[C@H](F)C[C@@H]2C(=O)N2CCOCC2)ccc1Cl`
OUTPUT: 753

INPUT: Read the entry `CCN1CCN(c2c(S(=O)(=O)c3ccc(C)c(C)c3)cnc3cc(OC)c(OC)cc23)CC1` and write its reported RP-LC retention time.
OUTPUT: 629

INPUT: Check the records and state RP-LC retention time for `CC1CCN(C(=O)C2=NN(Cc3ccccc3)c3ccccc3S2(=O)=O)CC1`
OUTPUT: 1010

INPUT: Quickly give me recorded RP-LC retention time for `CC1CCN(CCNC(=O)c2nnc(-c3ccc(S(=O)(=O)N4CCCCC4)cc3)o2)CC1`
OUTPUT: 663

INPUT: Complete the entry with RP-LC retention time for CC(C)CNC(=O)c1nnn2c1COC(c1ccc(Br)cc1)C2 (centres undefined)
OUTPUT: 973

INPUT: Given the compound `CC(C)Oc1ccc(CNC(=O)c2ccc3c(c2)N(C)C(=O)c2ccccc2O3)cc1` , write its reported RP-LC retention time.
OUTPUT: 958

INPUT: Supply reported RP-LC retention time belonging to this compound: `CC(C)c1noc(-c2cc(=O)n(CC(=O)NCc3ccc(F)cc3)c3ccccc23)n1`
OUTPUT: 951

INPUT: For the compound `Cc1nnsc1C(=O)N1CCC(CNC(=O)NC(c2ccccc2)c2ccccc2)CC1` , report RP-LC retention time.
OUTPUT: 759

INPUT: Please give measured RP-LC retention time of the following entry: `CCN1CCN(Cc2ccc(NC(=O)c3ccc(C)c(NC(=O)c4cncc(-c5cccs5)c4)c3)cc2C(F)(F)F)CC1`
OUTPUT: 844

INPUT: Please supply the value of reported RP-LC retention time for the item `COc1ccc(-c2nnc(CC(=O)N3CCC4(CC3)OCCO4)o2)cc1`
OUTPUT: 681

INPUT: Query RP-LC retention time for CC(C)C(=O)NCc1csc(C2CCCN(C(=O)C3CCCC3)C2)n1 (centres undefined)
OUTPUT: 691

INPUT: Give RP-LC retention time for the following compound: O=C(Nc1ccc(F)cc1F)C1CC(=O)N(CCc2c[nH]c3ccc(F)cc23)C1 (centres undefined)
OUTPUT: 784

INPUT: Entry `Cc1cc(C(=O)N2CCC3(CC2)NCc2ccccc2-n2ccnc23)nn1C` needs its RP-LC retention time filled in; supply it.
OUTPUT: 576

INPUT: Provide RP-LC retention time value for the following compound: `Cc1ccc2c(Nc3ccc(C)c(F)c3)c(C(=O)N3CCSCC3)cnc2n1`
OUTPUT: 642

INPUT: Answer with the recorded RP-LC retention time for the compound listed here: Cc1cc(C)n(-c2ccnc(N3CCC(C(=O)NCC4CCCO4)CC3)n2)n1 (centres undefined)
OUTPUT: 674

INPUT: Quickly give me recorded RP-LC retention time for `CC(C)C(=O)Nc1ccc(C2(C(=O)NCCN3CCc4ccccc4C3)CCCCC2)cc1`
OUTPUT: 732

Numbers sourced from the METLIN SMRT retention time set (Domingo-Almenara et al. 2019).
